- System Under Test: hTLR8 (Homo sapiens)
- Construct: host or cells: HEK293 cells stably transfected with hTLR8
- Sequence (Q9NR97 27-1041): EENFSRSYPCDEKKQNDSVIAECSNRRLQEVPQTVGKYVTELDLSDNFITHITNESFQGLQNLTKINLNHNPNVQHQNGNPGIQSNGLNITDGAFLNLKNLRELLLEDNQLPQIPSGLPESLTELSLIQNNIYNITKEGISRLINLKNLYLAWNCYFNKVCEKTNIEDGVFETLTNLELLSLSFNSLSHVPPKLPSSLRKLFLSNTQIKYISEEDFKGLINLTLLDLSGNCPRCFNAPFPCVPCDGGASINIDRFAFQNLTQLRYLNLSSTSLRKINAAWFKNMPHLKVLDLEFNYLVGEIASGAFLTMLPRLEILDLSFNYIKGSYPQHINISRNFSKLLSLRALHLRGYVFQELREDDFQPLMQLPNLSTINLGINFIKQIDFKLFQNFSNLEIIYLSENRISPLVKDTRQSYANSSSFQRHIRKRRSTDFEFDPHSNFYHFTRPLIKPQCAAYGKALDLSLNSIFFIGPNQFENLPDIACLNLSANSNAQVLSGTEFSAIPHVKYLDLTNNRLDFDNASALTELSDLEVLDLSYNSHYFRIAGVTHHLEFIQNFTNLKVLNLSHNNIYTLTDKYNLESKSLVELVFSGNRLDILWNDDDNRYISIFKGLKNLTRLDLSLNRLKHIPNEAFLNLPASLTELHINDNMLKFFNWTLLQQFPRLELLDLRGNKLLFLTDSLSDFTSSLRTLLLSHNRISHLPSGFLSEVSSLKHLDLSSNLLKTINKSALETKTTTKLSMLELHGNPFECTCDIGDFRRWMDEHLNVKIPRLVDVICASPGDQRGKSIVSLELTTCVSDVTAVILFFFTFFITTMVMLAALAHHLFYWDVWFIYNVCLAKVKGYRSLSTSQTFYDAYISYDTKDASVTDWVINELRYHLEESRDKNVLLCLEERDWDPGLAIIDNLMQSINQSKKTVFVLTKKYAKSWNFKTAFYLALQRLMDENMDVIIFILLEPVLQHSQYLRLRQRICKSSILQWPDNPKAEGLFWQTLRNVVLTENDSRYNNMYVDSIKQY
- Test Description: HEK-293 hTLR8 transfectant antagonist assay (NF-κB driven SEAP reporter)
- Type: cell-based
- Condition Label: hTLR8 reporter cells; TLR8 agonist VTX-378 (Compound A) 0.5 μM; read-out: IC50, nM, vs. VTX-378 0.5 μM
Endpoint Label: IC50

[[record]]
compound = "CCOC(=O)Nc1ccc(-c2ccc3c(c2)C=C(C(=O)OCC)CC(N)=N3)cc1"
reported_value = "< 1000 nM"


Exercise: Name the reported IC50 value associated with the compound CCOC(=O)C1=Cc2cc(-c3ccccc3OC)ccc2N=C(N)C1
Key: < 1000 nM

Exercise: Name the reported IC50 value associated with the compound CCOC(=O)C1=Cc2cc(-c3ccc(N4CCOC4=O)cc3)ccc2N=C(N)C1
Key: < 1000 nM

Exercise: Name the reported IC50 value associated with the compound CCOC(=O)C1=Cc2cc(-c3ccc(OC)cc3)ccc2N=C(N)C1
Key: 1000 to 10000 nM

Exercise: Name the reported IC50 value associated with the compound CCOC(=O)C1=Cc2cc(-c3ccc(C(=O)N4CCCC4)cc3)ccc2N=C2NCCC12 (centres unmarked)
Key: < 1000 nM
